assay: qHTS Assay for Spectroscopic Profiling in A350 Spectral Region; settings: Compound autofluorescence, 340/450 nm, Alexa 350 dye-equivalents; hits give high values
Among all 59,000 compounds or so, about 6,500 (11%) were called active. Another 15% or so got no clear call; they are omitted. The full list was thinned out, with actives kept by preference.
attribute_measured: max dye-equivalent concentration

[
  {
    "compound": "COc1ccccc1NC(=O)CSc1nnc(Cn2nnc(-c3ccccc3)n2)n1-c1ccccc1",
    "endpoint_result": "inactive"
  },
  {
    "compound": "CCNC(=O)c1c(O)c2cccc3c2n(c1=O)CC3",
    "endpoint_result": "22 nM (active)"
  },
  {
    "compound": "CC(=C1C(=O)c2ccccc2C1=O)N1CCN(c2ccccn2)CC1",
    "endpoint_result": "inactive"
  },
  {
    "compound": "O=C(Nc1ncccn1)c1cccs1",
    "endpoint_result": "inactive"
  },
  {
    "compound": "Nc1ncc(-c2cc3ccccc3oc2=O)s1",
    "endpoint_result": "inactive"
  },
  {
    "compound": "O=C1c2cccc3cccc(c23)N1CN1CCN(c2ccccn2)CC1",
    "endpoint_result": "16 nM (active)"
  },
  {
    "compound": "Cc1cccc(N2CCN(S(=O)(=O)c3ccc4c(c3)c(=O)n(C)c(=O)n4C)CC2C)c1 (centres undefined)",
    "endpoint_result": "inactive"
  },
  {
    "compound": "Cn1c(C(=O)NCCN2CCc3ccccc3C2)cc2c(=O)[nH]c3ccccc3c21",
    "endpoint_result": "inactive"
  },
  {
    "compound": "CCCc1[nH]nc2c1C(c1c(C)nn(-c3ccccc3)c1Cl)C(C#N)=C(N)O2 (centres undefined)",
    "endpoint_result": "inactive"
  },
  {
    "compound": "CSc1nc(N)c(C#N)c(-c2ccccc2Cl)c1C#N",
    "endpoint_result": "inactive"
  },
  {
    "compound": "O=C(NCc1ccccn1)Nc1ccc(F)cc1",
    "endpoint_result": "inactive"
  },
  {
    "compound": "O=C(NCc1ccccn1)c1cc2ccccc2oc1=O",
    "endpoint_result": "21 nM (active)"
  },
  {
    "compound": "COC(=O)c1sc(NC(=O)c2csc3c2CCCC3)nc1C",
    "endpoint_result": "inactive"
  },
  {
    "compound": "CCOC(=O)N1CCC(NC(=O)CCc2cn(C)c3ccccc23)CC1",
    "endpoint_result": "470 nM (active)"
  },
  {
    "compound": "CCOC(=O)C1C(=O)C=C(c2ccc(OC)cc2)CC1c1ccco1 (centres undefined)",
    "endpoint_result": "11 nM (active)"
  },
  {
    "compound": "COc1ccccc1CNc1nc(-c2c(C)noc2C)nc2ccccc12",
    "endpoint_result": "inactive"
  },
  {
    "compound": "COc1ccc(S(=O)(=O)NC(CC(=O)NCc2ccccc2OC)c2ccco2)cc1 (centres undefined)",
    "endpoint_result": "inactive"
  },
  {
    "compound": "COc1ccc(C2OC(=O)CC2C(=O)NC(C)C)cc1 (centres undefined)",
    "endpoint_result": "inactive"
  },
  {
    "compound": "CC(C)C(c1nnnn1CCc1ccccc1)N1CCN(C(=O)c2ccco2)CC1 (centres undefined)",
    "endpoint_result": "inactive"
  },
  {
    "compound": "CSc1ccc(-c2c(C#N)c(N)nc3c2c(C)nn3-c2ccccc2)cc1",
    "endpoint_result": "360 nM (active)"
  },
  {
    "compound": "CC(Nc1nc(N2CCCC2)nc2ccccc12)c1ccccc1 (centres undefined)",
    "endpoint_result": "170 nM (active)"
  },
  {
    "compound": "Cc1cc(=O)n2c3c(cccc13)CCC2",
    "endpoint_result": "inactive"
  },
  {
    "compound": "Cc1ccc(C(CC(=O)O)Nc2nc(N3CCCCC3)nc(N3CCCCC3)n2)cc1 (centres undefined)",
    "endpoint_result": "inactive"
  },
  {
    "compound": "O=C(Oc1cccnc1)c1cc2ccccc2oc1=O",
    "endpoint_result": "96 nM (active)"
  }
]

---

assay: qHTS Assay for Spectroscopic Profiling in A350 Spectral Region; details: Compound autofluorescence, 340/450 nm, Alexa 350 dye-equivalents
Among all 59,000 compounds or so, about 6,500 (11%) were called active. About 15% were inconclusive and are not listed. No stated cut-off is given here; in the data, active means max dye-equivalent concentration above about 10 nM; inconclusive means mostly about 1.1 nM to 9.6 nM; inactive means weaker than that. The sample holds actives, similar compounds and a random draw of the others, so the mix is not that of the screen.
Outcome codes: active, inactive

[
  {
    "compound": "Cc1c(-c2nn(C)c(=O)c3ccccc23)oc2ccc(F)cc2c1=O",
    "discrete_label": "inactive"
  },
  {
    "compound": "COc1ccccc1N1CCN(Cc2nnnn2CCc2ccccc2)CC1",
    "discrete_label": "inactive"
  },
  {
    "compound": "CCn1cc(C(=O)N2CCN(Cc3ccc4c(c3)OCO4)CC2)c2cc(OC)c(OC)cc2c1=O",
    "discrete_label": "inactive"
  },
  {
    "compound": "C=CCn1c(=O)c2ccccc2n2c(SCC(=O)N3CCCc4ccccc43)nnc12",
    "discrete_label": "inactive"
  },
  {
    "compound": "Cc1cc(C)nc(-n2nc(C)cc2NC(=O)c2ccc(Br)o2)n1",
    "discrete_label": "inactive"
  },
  {
    "compound": "COC(=O)c1ccc(C2CC(=O)Nc3cc(OC)c(OC)cc32)cc1 (configuration not stated)",
    "discrete_label": "inactive"
  },
  {
    "compound": "CCC(c1nnnn1Cc1ccccc1)N(Cc1cc2cc(OC)ccc2[nH]c1=O)CC1CCCO1 (configuration not stated)",
    "discrete_label": "active"
  },
  {
    "compound": "CCOC(=O)Nc1ccc2c(c1)N(C(=O)CN1CCN3CCCC3C1)c1ccccc1CC2 (configuration not stated)",
    "discrete_label": "inactive"
  },
  {
    "compound": "CCC(c1nnnn1C1CCCC1)N(Cc1cccs1)Cc1cc2cccc(C)c2[nH]c1=O (configuration not stated)",
    "discrete_label": "inactive"
  },
  {
    "compound": "CCOc1ccc2[nH]c(=O)c(CN(Cc3nnnn3Cc3ccccc3)CC3CCCO3)cc2c1 (configuration not stated)",
    "discrete_label": "active"
  },
  {
    "compound": "CCC(Oc1ccccc1)C(=O)NCc1cccnc1 (configuration not stated)",
    "discrete_label": "inactive"
  },
  {
    "compound": "NCC(=O)[C@@H](O)[C@H](O)[C@H](O)CO",
    "discrete_label": "inactive"
  },
  {
    "compound": "CCCC(=O)N(CCc1ccccc1)Cc1nc2ccccc2c(=O)[nH]1",
    "discrete_label": "inactive"
  },
  {
    "compound": "CC(C)(C)n1nnnc1C(c1cccs1)N(Cc1cccnc1)CC1CCCO1 (configuration not stated)",
    "discrete_label": "inactive"
  },
  {
    "compound": "Cc1cccc2cc(CN(Cc3cccs3)C(c3nnnn3C3CCCC3)C(C)C)c(=O)[nH]c12 (configuration not stated)",
    "discrete_label": "inactive"
  },
  {
    "compound": "CCC(c1nnnn1Cc1ccco1)N(Cc1cc2cc(OC)ccc2[nH]c1=O)C1CCCCC1 (configuration not stated)",
    "discrete_label": "active"
  },
  {
    "compound": "Cc1ccc(S(=O)(=O)NCc2nc3ccccc3c(=O)n2N)cc1",
    "discrete_label": "inactive"
  },
  {
    "compound": "NS(=O)(=O)c1cc(C(=O)O)c(Cl)c([N+](=O)[O-])c1Cl",
    "discrete_label": "inactive"
  },
  {
    "compound": "CCCC(=O)Nc1ccc(Cl)c(NC(=O)c2ccc(Br)o2)c1",
    "discrete_label": "inactive"
  },
  {
    "compound": "COc1ccc(S(=O)(=O)Nc2c(C)n(C)n(-c3ccccc3)c2=O)cc1",
    "discrete_label": "inactive"
  },
  {
    "compound": "CC(C)(C)n1nnc(CCc2nnn(C(C)(C)C)n2)n1",
    "discrete_label": "inactive"
  },
  {
    "compound": "CCCN1Cc2cccc(C(=O)NCc3ccccc3)c2C1=O",
    "discrete_label": "inactive"
  }
]

---

experiment: qHTS Assay for Spectroscopic Profiling in A350 Spectral Region; settings: Compound autofluorescence, 340/450 nm, Alexa 350 dye-equivalents
The whole screen tested about 59,000 compounds, of which about 6,500 (11%) were called active. Inconclusive results (about 15%) are left out. Rule as the data show it: active = max dye-equivalent concentration above about 10 nM; inconclusive = mostly about 1.1 nM to 9.6 nM; inactive = weaker than that. The full list was thinned out, with actives kept by preference.
Outcome codes: 1 = active, -1 = inactive

[
  {
    "compound": "CC(C)C(=O)N1c2ccccc2NC2=C(C(=O)CCC2)C1c1ccc(N(C)C)cc1 (stereo unspecified)",
    "discrete_label": -1
  },
  {
    "compound": "CN1CCN(Cc2nc3c(c(=O)n(C)c(=O)n3C)n2Cc2cccc3ccccc23)CC1",
    "discrete_label": -1
  },
  {
    "compound": "CCCS(=O)(=O)N1CCN(C(=O)c2cccs2)CC1",
    "discrete_label": -1
  },
  {
    "compound": "O=C(c1csnn1)N1CCC[C@@]2(CCN(c3cccc(-c4ccccc4)c3)C2)C1",
    "discrete_label": -1
  },
  {
    "compound": "CN1CCN(S(=O)(=O)c2ccc3[nH]cc(C(=O)O)c(=O)c3c2)CC1",
    "discrete_label": 1
  },
  {
    "compound": "NS(=O)(=O)c1cc2c(cc1Cl)NC(C(Cl)Cl)NS2(=O)=O (stereo unspecified)",
    "discrete_label": 1
  },
  {
    "compound": "CCOC(=O)N1CCN(C(=O)c2cn(C)c3ccc(S(=O)(=O)N4CCCC4)cc3c2=O)CC1",
    "discrete_label": -1
  },
  {
    "compound": "CCN1CCc2c(C#N)c(NCc3ccccc3)nc(NCCO)c2C1",
    "discrete_label": 1
  },
  {
    "compound": "O=C1c2cccnc2C(Nc2ccc(S(=O)(=O)N3CCCCCC3)cc2)N1Cc1ccccc1 (stereo unspecified)",
    "discrete_label": -1
  },
  {
    "compound": "CCOc1ccc(Nc2oc(Cc3ccccc3)nc2C#N)cc1",
    "discrete_label": -1
  },
  {
    "compound": "Cc1ccc(NC(=O)C2CC(c3ccc(F)cc3)=NO2)cc1 (stereo unspecified)",
    "discrete_label": -1
  },
  {
    "compound": "Cc1cc(NC(=O)CCC(=O)N(c2cccc(F)c2)C(C(=O)NC2CCCC2)c2ccncc2)no1 (stereo unspecified)",
    "discrete_label": -1
  },
  {
    "compound": "Cc1ccc(S(=O)(=O)N2CCN(Cc3cccc(C)c3O)CC2)cc1",
    "discrete_label": -1
  },
  {
    "compound": "O=C(c1cccnc1NCc1ccccc1)N1CCOCC1",
    "discrete_label": -1
  },
  {
    "compound": "CC1(C)Cc2c(sc3nc4n(c(=N)c23)CCCCC4)CO1",
    "discrete_label": -1
  },
  {
    "compound": "OCCN1CCN(CC/C=C2\\c3ccccc3Sc3ccc(C(F)(F)F)cc32)CC1",
    "discrete_label": -1
  },
  {
    "compound": "COc1ccc2c(c1OC)C(=O)OC2c1c(O)nc(SC)n(-c2ccccc2)c1=O (stereo unspecified)",
    "discrete_label": -1
  },
  {
    "compound": "CCC(=O)NC(=Nc1nc2ccccc2s1)NC(=O)CC",
    "discrete_label": 1
  },
  {
    "compound": "COc1ccccc1NC(=O)C1=C(C)NC2=C(C(=O)CCC2)C1c1ccc(C)o1 (stereo unspecified)",
    "discrete_label": 1
  },
  {
    "compound": "CCOC(=O)CSc1nc2c(c(=O)n(Cc3ccccc3Cl)c(=O)n2C)n1C",
    "discrete_label": -1
  },
  {
    "compound": "CC(=O)N=c1ncn(CC(COC(C)=O)OC(C)=O)c2nc[nH]c12 (stereo unspecified)",
    "discrete_label": -1
  },
  {
    "compound": "C[C@H](NC(=O)NCCc1ccccc1)C(=O)O",
    "discrete_label": -1
  },
  {
    "compound": "O=C(O)c1cccc(S(=O)(=O)NCCO)c1",
    "discrete_label": -1
  },
  {
    "compound": "O=C(CC1N=C2c3ccccc3N=C(SCc3ccccc3Cl)N2C1=O)NCc1ccco1 (stereo unspecified)",
    "discrete_label": 1
  },
  {
    "compound": "CCC1(C)Cc2c(sc3nc4n(c(=O)c23)CCCS4)CO1 (stereo unspecified)",
    "discrete_label": 1
  },
  {
    "compound": "Cc1nc2nc(SCC(=O)NCc3ccco3)nn2c(C)c1Cc1ccccc1",
    "discrete_label": -1
  },
  {
    "compound": "CCOc1ccc2nc(NCCNS(=O)(=O)c3ccccc3)c(C#N)cc2c1",
    "discrete_label": 1
  },
  {
    "compound": "CN(C)CCNC(CC(=O)Nc1ccc(Cl)c(Cl)c1)C(=O)O (stereo unspecified)",
    "discrete_label": -1
  },
  {
    "compound": "O=C1c2ccccc2C(O)N1Cc1ccccc1 (stereo unspecified)",
    "discrete_label": 1
  },
  {
    "compound": "O=C(c1cc(C(F)(F)F)cc(C(F)(F)F)c1)N1CCC[C@@]2(CCN(c3ccccn3)C2)C1",
    "discrete_label": -1
  },
  {
    "compound": "COC(=O)Cc1cc(=O)n(-c2nc3ccccc3s2)[nH]1",
    "discrete_label": -1
  }
]

Origin of values: PubChem BioAssay AID590
